For each of the molecules below, state its IC50.
# Target or system: Dual specificity tyrosine-phosphorylation-regulated kinase 3 (Homo sapiens, UniProt O43781)
# Sequence (O43781 whole entry): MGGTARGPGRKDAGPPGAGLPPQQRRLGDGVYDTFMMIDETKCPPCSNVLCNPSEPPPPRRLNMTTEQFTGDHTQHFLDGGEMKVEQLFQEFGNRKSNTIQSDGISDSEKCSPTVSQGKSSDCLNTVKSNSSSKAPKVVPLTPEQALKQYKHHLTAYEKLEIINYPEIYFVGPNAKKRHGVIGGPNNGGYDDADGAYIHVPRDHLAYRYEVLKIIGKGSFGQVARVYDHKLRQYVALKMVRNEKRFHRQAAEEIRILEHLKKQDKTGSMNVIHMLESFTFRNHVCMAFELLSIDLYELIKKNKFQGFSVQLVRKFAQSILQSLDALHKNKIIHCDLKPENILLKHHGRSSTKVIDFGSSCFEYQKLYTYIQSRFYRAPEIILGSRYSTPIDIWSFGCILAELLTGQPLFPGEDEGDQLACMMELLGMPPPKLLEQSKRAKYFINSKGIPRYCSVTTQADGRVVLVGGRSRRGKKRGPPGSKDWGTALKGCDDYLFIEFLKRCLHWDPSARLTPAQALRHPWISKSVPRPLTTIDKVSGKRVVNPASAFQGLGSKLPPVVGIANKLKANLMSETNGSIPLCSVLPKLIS
Give the value in nM but do not write nM after it.

In: Requested read-out: IC50. Entry: COC(=N)c1nc2ccc3ncnc(Nc4ccc(OC)cc4F)c3c2s1
Out: 21.1

In: Record request: IC50 value, item COC(=N)c1nc2ccc3ncnc(Nc4ccc(Cl)cc4Cl)c3c2s1
Out: 93.2

---

Measured metric: IC50 (nM)
Give the quantity in nM, number only.

In: Enter reported IC50 observed with Dual specificity protein kinase CLK2 (Homo sapiens) for COC(=N)c1nc2ccc3ncnc(Nc4ccc(OC)cc4F)c3c2s1
Sequence (P49760 whole entry): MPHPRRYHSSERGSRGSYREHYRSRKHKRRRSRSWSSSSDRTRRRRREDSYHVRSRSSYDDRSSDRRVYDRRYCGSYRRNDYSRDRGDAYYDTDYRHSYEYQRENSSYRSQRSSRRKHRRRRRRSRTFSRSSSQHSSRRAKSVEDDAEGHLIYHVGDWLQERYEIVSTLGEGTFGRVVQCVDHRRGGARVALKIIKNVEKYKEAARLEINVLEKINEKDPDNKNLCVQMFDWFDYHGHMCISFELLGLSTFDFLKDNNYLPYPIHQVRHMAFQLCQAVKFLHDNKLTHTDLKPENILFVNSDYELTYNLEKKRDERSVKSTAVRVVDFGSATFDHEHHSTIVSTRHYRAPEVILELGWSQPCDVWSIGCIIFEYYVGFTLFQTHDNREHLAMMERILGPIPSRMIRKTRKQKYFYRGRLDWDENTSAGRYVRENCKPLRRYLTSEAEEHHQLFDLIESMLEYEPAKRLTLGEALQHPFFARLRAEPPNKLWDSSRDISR
Out: 32.5

---

# Target or system: Dual specificity tyrosine-phosphorylation-regulated kinase 2 (Homo sapiens, UniProt Q92630)
# Sequence (Q92630 whole entry): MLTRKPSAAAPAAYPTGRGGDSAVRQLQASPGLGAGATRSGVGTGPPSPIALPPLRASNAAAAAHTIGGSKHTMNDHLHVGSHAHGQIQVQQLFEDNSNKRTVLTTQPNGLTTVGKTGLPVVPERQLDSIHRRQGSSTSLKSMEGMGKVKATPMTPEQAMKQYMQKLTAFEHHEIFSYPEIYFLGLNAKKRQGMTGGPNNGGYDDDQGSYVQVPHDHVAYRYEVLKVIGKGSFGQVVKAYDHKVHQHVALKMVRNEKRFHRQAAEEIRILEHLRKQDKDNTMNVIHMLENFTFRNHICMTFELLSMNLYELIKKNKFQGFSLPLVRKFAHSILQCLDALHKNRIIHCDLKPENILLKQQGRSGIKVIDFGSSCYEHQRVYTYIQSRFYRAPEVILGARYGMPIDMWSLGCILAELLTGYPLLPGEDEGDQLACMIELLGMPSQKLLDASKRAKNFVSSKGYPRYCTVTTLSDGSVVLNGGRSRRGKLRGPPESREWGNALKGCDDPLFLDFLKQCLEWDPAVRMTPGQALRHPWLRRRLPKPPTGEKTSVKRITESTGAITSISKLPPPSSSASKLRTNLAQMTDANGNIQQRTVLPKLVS
# Method description: Inhibition of DYRK2 (unknown origin)
Measured metric: pIC50
To interpret pIC50, take it as minus log10 of a concentration measured in moles per litre.

In: Please report the recorded pIC50 for COC(=N)c1nc2ccc3ncnc(Nc4ccc(OC)cc4F)c3c2s1 .
Out: 8.50

In: Any idea what its pIC50 is? The molecule is COC(=N)c1nc2ccc3ncnc(Nc4ccc(Cl)cc4Cl)c3c2s1
Out: 7.97

---

# Target or system: Dual specificity tyrosine-phosphorylation-regulated kinase 4 (Homo sapiens, UniProt Q9NR20)
# Sequence (Q9NR20 whole entry): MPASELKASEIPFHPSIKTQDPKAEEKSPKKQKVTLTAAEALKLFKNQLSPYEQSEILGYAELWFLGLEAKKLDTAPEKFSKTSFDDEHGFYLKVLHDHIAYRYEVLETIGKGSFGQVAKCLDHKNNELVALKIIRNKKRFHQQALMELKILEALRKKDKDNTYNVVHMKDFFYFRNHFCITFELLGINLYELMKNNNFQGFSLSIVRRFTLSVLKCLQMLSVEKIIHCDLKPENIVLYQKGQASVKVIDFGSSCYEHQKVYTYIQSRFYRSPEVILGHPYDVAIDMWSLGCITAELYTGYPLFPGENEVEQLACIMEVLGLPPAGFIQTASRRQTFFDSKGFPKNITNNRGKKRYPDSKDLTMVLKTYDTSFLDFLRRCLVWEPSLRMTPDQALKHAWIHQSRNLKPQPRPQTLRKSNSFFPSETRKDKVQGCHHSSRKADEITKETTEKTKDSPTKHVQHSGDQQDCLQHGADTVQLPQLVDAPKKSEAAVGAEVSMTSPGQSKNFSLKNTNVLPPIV
# Method description: Inhibition of DYRK4 (unknown origin)
# Reported conditions: read-out: IC50
Measured metric: pIC50
Convention used: pIC50 is expressed as -log10 of the molar concentration.

In: Requested read-out: pIC50. Entry: COC(=N)c1nc2ccc3ncnc(Nc4ccc(OC)cc4F)c3c2s1
Out: 5.80
